ASSAY TEXT: In vivo pharmacokinetics of amphenmulin in chickens (IV, IM, PO)
STATED CONDITIONS: yellow-feathered broilers, plasma, 20 mg/kg bw., IM
READOUT LABEL: AUC(0-inf) (ng·h/mL)

smiles_input=C=C[C@]1(C)C[C@@H](OC(=O)CSc2ccccc2N)[C@]2(C)[C@H](C)CC[C@]3(CCC(=O)[C@H]32)[C@@H](C)[C@@H]1O unit_string=ng·h/mL assay_value=9850

* * *

ASSAY TEXT: In vivo pharmacokinetics of amphenmulin in chickens (IV, IM, PO)
STATED CONDITIONS: yellow-feathered broilers, plasma, 20 mg/kg bw., PO
READOUT LABEL: AUC(0-inf) (ng·h/mL)

smiles_input=C=C[C@]1(C)C[C@@H](OC(=O)CSc2ccccc2N)[C@]2(C)[C@H](C)CC[C@]3(CCC(=O)[C@H]32)[C@@H](C)[C@@H]1O assay_value=1110

* * *

ASSAY TEXT: In vivo pharmacokinetics of amphenmulin in chickens (IV, IM, PO)
STATED CONDITIONS: yellow-feathered broilers, plasma, 20 mg/kg bw., PO
READOUT LABEL: MRT (h)

smiles_input=C=C[C@]1(C)C[C@@H](OC(=O)CSc2ccccc2N)[C@]2(C)[C@H](C)CC[C@]3(CCC(=O)[C@H]32)[C@@H](C)[C@@H]1O assay_value=2.98

* * *

ASSAY TEXT: In vivo pharmacokinetics of amphenmulin in chickens (IV, IM, PO)
STATED CONDITIONS: yellow-feathered broilers, plasma, 20 mg/kg bw., PO, read-out: Tmax
Description: The M. gallisepticum standard strain S6 was obtained from the National Center for Veterinary Culture Collection (Beijing, China). Amphenmulin (98%) was synthesized by our laboratory according to the published methods ([10]). Acetonitrile and all other liquid chemicals used were purchased from Macklin Biochemical Technology Co., Ltd (Shanghai, China). […]
READOUT LABEL: Tmax (min)

compound="C=C[C@]1(C)C[C@@H](OC(=O)CSc2ccccc2N)[C@]2(C)[C@H](C)CC[C@]3(CCC(=O)[C@H]32)[C@@H](C)[C@@H]1O [amphenmulin]" assay_value=15

* * *

ASSAY TEXT: In vivo pharmacokinetics of amphenmulin in chickens (IV, IM, PO)
STATED CONDITIONS: yellow-feathered broilers, plasma, 20 mg/kg bw., PO, read-out: F (absolute bioavailability)
READOUT LABEL: bioavailability (%)

smiles_input=C=C[C@]1(C)C[C@@H](OC(=O)CSc2ccccc2N)[C@]2(C)[C@H](C)CC[C@]3(CCC(=O)[C@H]32)[C@@H](C)[C@@H]1O readout_label=bioavailability assay_value=5.88

* * *

ASSAY TEXT: In vivo pharmacokinetics of amphenmulin in chickens (IV, IM, PO)
STATED CONDITIONS: yellow-feathered broilers, plasma, 20 mg/kg bw., IV
READOUT LABEL: k el (s⁻¹)

compound="C=C[C@]1(C)C[C@@H](OC(=O)CSc2ccccc2N)[C@]2(C)[C@H](C)CC[C@]3(CCC(=O)[C@H]32)[C@@H](C)[C@@H]1O [amphenmulin]" assay_value=9.72e-05
